# target-of-assay: EGFR Del19/T790M/C797S (Homo sapiens, UniProt P00533, C797S/DEL746-750/T790M)
# Sequence (P00533 with tags, fused parts or gaps DEL746-750/T790M/C797S): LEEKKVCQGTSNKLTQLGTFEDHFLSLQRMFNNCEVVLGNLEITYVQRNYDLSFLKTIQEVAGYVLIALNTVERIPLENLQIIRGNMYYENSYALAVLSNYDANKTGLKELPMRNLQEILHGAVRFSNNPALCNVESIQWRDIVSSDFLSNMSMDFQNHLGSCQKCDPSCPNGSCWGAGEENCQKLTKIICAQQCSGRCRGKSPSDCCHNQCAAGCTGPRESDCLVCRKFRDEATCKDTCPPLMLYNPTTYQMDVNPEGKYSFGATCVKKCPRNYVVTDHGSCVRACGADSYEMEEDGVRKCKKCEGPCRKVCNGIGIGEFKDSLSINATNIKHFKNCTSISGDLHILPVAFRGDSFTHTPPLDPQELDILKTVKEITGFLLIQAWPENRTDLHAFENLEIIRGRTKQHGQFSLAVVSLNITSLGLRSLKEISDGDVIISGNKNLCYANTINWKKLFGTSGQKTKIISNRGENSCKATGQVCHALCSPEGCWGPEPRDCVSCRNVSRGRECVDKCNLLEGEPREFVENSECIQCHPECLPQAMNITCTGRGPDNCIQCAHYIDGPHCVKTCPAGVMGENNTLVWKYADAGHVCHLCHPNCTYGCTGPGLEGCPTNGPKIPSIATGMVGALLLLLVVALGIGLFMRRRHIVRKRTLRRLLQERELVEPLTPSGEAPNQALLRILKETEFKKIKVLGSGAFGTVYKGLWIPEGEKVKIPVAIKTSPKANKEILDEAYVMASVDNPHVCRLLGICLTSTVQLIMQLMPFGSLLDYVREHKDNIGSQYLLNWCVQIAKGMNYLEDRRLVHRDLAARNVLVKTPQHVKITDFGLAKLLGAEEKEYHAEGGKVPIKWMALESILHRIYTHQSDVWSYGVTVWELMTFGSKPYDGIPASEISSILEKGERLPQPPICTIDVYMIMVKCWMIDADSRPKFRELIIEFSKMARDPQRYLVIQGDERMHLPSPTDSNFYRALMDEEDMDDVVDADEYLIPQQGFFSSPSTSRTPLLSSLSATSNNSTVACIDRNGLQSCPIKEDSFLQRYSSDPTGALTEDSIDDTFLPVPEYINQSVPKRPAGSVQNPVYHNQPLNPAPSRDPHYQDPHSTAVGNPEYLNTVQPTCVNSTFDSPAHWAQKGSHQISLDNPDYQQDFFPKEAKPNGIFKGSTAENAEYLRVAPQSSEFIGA
# assay-details: Biochemical EGFR kinase inhibition assay (Lance Ultra TR-FRET), triple mutant del19/T790M/C797S
# condition-label: IC50 Del19/T790M/C797S (nM), 100 μM ATP
# Method: Biochemical EGFR kinase assays were conducted using Lance Ultra time-resolved fluorescence resonance energy transfer (TR-FRET) technology from Perkin-Elmer. […] Each kinase reactions were incubated at room temperature for 1 hour and then stopped by the addition of 4 μL of stop solution (10 mM EDTA). […] After 60 minutes incubation at room temperature the LANCE signal was measured on an EnVision Multilabel Reader (Perkin-Elmer). […]
assay-endpoint: IC50 (nM)

O=S(=O)(C1CC1)n1cc(-c2nccc(Nc3cc(N[C@H]4CC[C@@H](CO)CC4)c(C#Cc4cnn(CC(F)F)c4)cn3)n2)cn1 [Example 324]    0.3

1 = CC1(CO)CCN(c2cc(Nc3ccnc(-c4cnn(S(=O)(=O)C5CC5)c4)n3)ncc2C#Cc2cnn(CCN3CCOCC3)c2)CC1 [Example 232]
2 = CC1(O)CCN(c2cc(Nc3ccnc(-c4cnn(S(=O)(=O)C5CC5)c4)n3)ncc2C#Cc2cccnc2)CC1 [Example 280]
Task: Between 1 and 2 , whose measured IC50 reads higher? Please indicate the selected item by its label.
Result: 1
(1: 1.3 nM, 2: 0.3 nM)
